Target: mouse MC1R (on murine B16-F1 melanoma cells) (mouse, UniProt Q01727 1-315)
Sequence (Q01727 whole entry): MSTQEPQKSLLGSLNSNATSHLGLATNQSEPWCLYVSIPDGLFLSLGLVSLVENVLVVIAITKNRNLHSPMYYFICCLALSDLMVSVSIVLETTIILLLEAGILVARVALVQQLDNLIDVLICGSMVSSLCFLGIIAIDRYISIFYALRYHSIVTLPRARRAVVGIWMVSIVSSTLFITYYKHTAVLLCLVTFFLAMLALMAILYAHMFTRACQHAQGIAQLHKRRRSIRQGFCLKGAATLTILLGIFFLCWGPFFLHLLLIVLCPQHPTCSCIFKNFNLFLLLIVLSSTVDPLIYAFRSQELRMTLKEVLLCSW
Assay: cell-based or functional assay
[ ]: non-standard residue; d: D form.

{"binder": "Ac-[dV][dP][dK]G[dW][dR]F[dH][dS][dI][dI][dS][dS]-NH2 (SMILES CC[C@@H](C)[C@@H](NC(=O)[C@@H](CO)NC(=O)[C@@H](Cc1c[nH]cn1)NC(=O)[C@H](Cc1ccccc1)NC(=O)[C@@H](CCCNC(=N)N)NC(=O)[C@@H](Cc1c[nH]c2ccccc12)NC(=O)CNC(=O)[C@@H](CCCCN)NC(=O)[C@H]1CCCN1C(=O)[C@H](NC(C)=O)C(C)C)C(=O)N[C@@H](C(=O)N[C@H](CO)C(=O)N[C@H](CO)C(N)=O)[C@H](C)CC) [peptide 880]", "EC50, cAMP in B16-F1 cells": "23 nM"}
